experiment: Plasma concentrations after oral dosing (solution in apple juice) of human volunteers, Example 1A; type: in vivo; conditions: human, plasma, po, 15 mg, subject 3 (129 kg); 15 mg oral; 0.5 h
Readout name: concentration at 0.5 h (ng/mL)
# output: bare number, implied unit ng/mL

Query :: Answer with the recorded concentration at 0.5 h of COc1cc2c(cc1OC)[C@H]1C[C@@H](O)[C@H](CC(C)C)CN1CC2 [(+)-α-dihydrotetrabenazine] only.
Result :: 1.2

====

experiment: Plasma concentrations after oral dosing (solution in apple juice) of human volunteers, Example 1A; format: in vivo; details: human, plasma, po, 15 mg, subject 6 (68 kg); 15 mg oral; 1.5 h
Readout name: concentration at 1.5 h (ng/mL)
The figure you give is taken to be in ng/mL; do not add the unit.

Query :: Quote concentration at 1.5 h reported for COc1cc2c(cc1OC)[C@H]1C[C@@H](O)[C@H](CC(C)C)CN1CC2 [(+)-α-dihydrotetrabenazine] please.
Result :: 16.1

====

test: Plasma concentrations after oral dosing (solution in apple juice) of human volunteers, Example 1A; type: in vivo; details: human, plasma, po, 7.5 mg, subject 4 (59 kg); 7.5 mg oral; 3 h
Readout name: concentration at 3 h
Note: a bare number is incomplete; add the unit.

Query :: Output measured concentration at 3 h for this item: COc1cc2c(cc1OC)[C@H]1C[C@@H](O)[C@H](CC(C)C)CN1CC2 [(+)-α-dihydrotetrabenazine]
Result :: 19.6 ng/mL

====

assay: Plasma concentrations after oral dosing (solution in apple juice) of human volunteers, Example 1A; type: in vivo; conditions: human, plasma, po, 15 mg, subject 4 (59 kg); 15 mg oral; 1.5 h
Readout name: concentration at 1.5 h (ng/mL)
Only the number, expressed in ng/mL, is required.

Query :: Give concentration at 1.5 h for the following molecule: COc1cc2c(cc1OC)[C@H]1C[C@@H](O)[C@H](CC(C)C)CN1CC2 [(+)-α-dihydrotetrabenazine]
Result :: 42.5

====

assay: Plasma concentrations up to 7 hours after oral dosing of human volunteers, Example 1B; assay type: in vivo; details: po, 7.5 mg, Example 1B subject 6 (107 kg), 7.5 mg oral, 5 h
Readout name: concentration at 5 h (ng/mL)
The response must be a number in ng/mL with no trailing unit.

Query :: Report concentration at 5 h, nothing else, for this compound: COc1cc2c(cc1OC)[C@H]1C[C@@H](O)[C@H](CC(C)C)CN1CC2 [(+)-α-dihydrotetrabenazine]
Result :: 5.19

====

assay: Plasma concentrations after oral dosing (solution in apple juice) of human volunteers, Example 1A; format: in vivo; conditions: human, plasma, po, 15 mg, subject 3 (129 kg); 15 mg oral; 2 h
Readout name: concentration at 2 h (µg/mL)
Provide only the numeric value, understood in µg/mL.

Query :: Write down concentration at 2 h measured for item COc1cc2c(cc1OC)[C@H]1C[C@@H](O)[C@H](CC(C)C)CN1CC2 [(+)-α-dihydrotetrabenazine]
Result :: 0.012

====

experiment: Plasma concentrations after oral dosing (solution in apple juice) of human volunteers, Example 1A; type: in vivo; settings: human, plasma, po, 15 mg, subject 5 (91 kg); 15 mg oral; 3 h
Readout name: concentration at 3 h (ng/mL)
Supply the numeric figure in ng/mL, leaving out any unit text.

Query :: Input COc1cc2c(cc1OC)[C@H]1C[C@@H](O)[C@H](CC(C)C)CN1CC2 [(+)-α-dihydrotetrabenazine] , output reported concentration at 3 h.
Result :: 27.1
